Biological target: human A1 adenosine receptor (Homo sapiens, UniProt P30542)
Construct: expressed in transfected cells; host or cells: CHO cells (membranes)
Sequence (P30542 1-326): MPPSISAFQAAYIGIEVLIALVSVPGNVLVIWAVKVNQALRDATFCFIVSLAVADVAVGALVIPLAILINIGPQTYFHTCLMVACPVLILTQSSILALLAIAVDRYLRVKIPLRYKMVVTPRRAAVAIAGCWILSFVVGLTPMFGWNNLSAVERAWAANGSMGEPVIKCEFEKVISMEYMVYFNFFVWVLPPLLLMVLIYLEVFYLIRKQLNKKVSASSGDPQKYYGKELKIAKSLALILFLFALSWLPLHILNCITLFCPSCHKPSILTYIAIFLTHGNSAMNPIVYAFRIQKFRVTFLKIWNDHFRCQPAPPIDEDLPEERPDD
Assay: [3H]DPCPX binding to human A1 receptors expressed in CHO cells
Conditions: geometric mean (95% confidence interval); >1000 = no appreciable binding
value type: pKi
// returns pKi (minus log10 of molar concentration), number only

Here are 2 compounds together with their reported answers.
- compound: "CCCn1c(=O)c2[nH]c(-c3cc(OCC(=O)N4CCN(Cc5ccccc5)CC4)nn3C)nc2n(CCC)c1=O [AS90]"
  pKi: 6.09
- compound: "CCCn1c(=O)c2[nH]c(-c3cc(OCC(=O)Nc4ccc(C)c(C)c4)nn3C)nc2n(CCC)c1=O [AS99]"
  pKi: 6.15

pKi reported for this compound CCCn1c(=O)c2[nH]c(-c3cc(OCC(=O)Nc4ccc(C(C)CC)cc4)nn3C)nc2n(CCC)c1=O (stereo not drawn) [AS91] : 6.00
